experiment: Selectivity index, ratio of CC50 for human MT4 cells to EC50 for HIV1 3B infected in human MT4 cells
Assay type: toxicity, cell-based
experimental setup: HIV1 3B infected MT4 cells, read-out: Selectivity Index
Short version: selectivity ratio at least 200 is yes (1), less is no (0).

Completed entries (count: 2):
INSERT INTO measurements (molecule, assigned_category) VALUES
  ('Cc1cc(C)cc(NC(=O)CN2CCC(Nc3nccc(Oc4c(C)cc(C#N)cc4C)n3)CC2)c1', 'no (0)'),
  ('Cc1cc(C#N)cc(C)c1Oc1ccnc(NC2CCN(CC(=O)Nc3ccccc3[N+](=O)[O-])CC2)n1', 'yes (1)');

Please examine the following record next.
Is reported selectivity ratio greater than or equal to 200 here: `Cc1cccc(NC(=O)CN2CCC(Nc3nccc(Oc4c(C)cc(C#N)cc4C)n3)CC2)c1`
yes (1)
